Biological target: Albumin (Bos taurus) (UniProt P02769)
Sequence (P02769 whole entry, looked up): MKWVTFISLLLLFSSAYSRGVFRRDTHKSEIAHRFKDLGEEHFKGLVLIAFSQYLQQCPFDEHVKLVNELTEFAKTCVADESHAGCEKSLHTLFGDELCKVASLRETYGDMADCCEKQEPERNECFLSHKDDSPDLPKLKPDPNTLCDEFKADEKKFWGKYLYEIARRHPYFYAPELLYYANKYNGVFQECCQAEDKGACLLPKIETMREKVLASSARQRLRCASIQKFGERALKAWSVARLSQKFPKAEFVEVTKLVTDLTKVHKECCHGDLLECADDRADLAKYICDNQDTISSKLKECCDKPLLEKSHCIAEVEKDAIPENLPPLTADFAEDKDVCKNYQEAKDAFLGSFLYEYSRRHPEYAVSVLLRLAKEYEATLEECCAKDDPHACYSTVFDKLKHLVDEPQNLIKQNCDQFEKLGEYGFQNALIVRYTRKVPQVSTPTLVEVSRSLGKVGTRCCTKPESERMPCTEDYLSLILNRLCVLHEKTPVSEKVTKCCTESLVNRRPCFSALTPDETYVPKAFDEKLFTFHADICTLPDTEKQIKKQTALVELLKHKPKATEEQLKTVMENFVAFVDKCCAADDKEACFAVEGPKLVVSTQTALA
Assay: compounds binding labelled BSA control protein – biochemical, small-molecule microarray, Alexa647 label, 635/667 nm fluorescence, artefact control for SMM control protein annotation, profiling panel (AID 1118);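 note: score merges 667 nm emission intensity and signal-to-noise per printed compound spot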
Details: BSA-A647 binding, fluorescence 635 nm, higher = more signal
reported metric: composite z-score

smiles str: CN(C)CCCCCCNC(=O)[C@@H]1C[C@@H]2C(=O)N[C@@H](Cc3ccccc3)C(=O)N2[C@@H]1c1cccc(OCCO)c1
readout number: -0.0152
--
smiles str: NC(=O)[C@@]1(CCS(=O)(=O)c2ccccc2)N=C(c2ccc(OCCCO)cc2)O[C@H]1c1ccccc1
readout number: 0.737
--
smiles str: C=C(C(=O)CC[C@@H](OC(=O)c1cccnc1)c1ccc(CO)o1)C(C)C
readout number: 0.0207
--
smiles str: COc1ccc([Si](C)(C)[C@@H]2[C@@H](CCO)O[C@]3(C(=O)N(Cc4cccc(N5CCCCC5=O)c4)c4ccccc43)[C@H]2C)cc1
readout number: 0.532
--
smiles str: C=C(COC)C(=O)CC[C@@H](OC(=O)c1ccccc1-c1ccccc1C(=O)O)c1ccc(CO)o1
readout number: -0.651
--
smiles str: C=CCOC(=O)[C@H]1[C@@H]2C(=O)O[C@@H](c3ccccc3)[C@@H](c3ccccc3)N2[C@@H](c2ccc(OCCOC(=O)[C@@H]3C[C@@H]4C(=O)NCC(=O)N4[C@@H]3c3ccc(O)cc3)cc2)[C@]12C(=O)Nc1ccc(I)cc12
readout number: 0.733
--
smiles str: COc1ccc([Si](C)(C)[C@H]2[C@H](CCO)O[C@@]3(C(=O)N(Cc4cccc(N5C(=O)c6cccc7cccc5c67)c4)c4ccccc43)[C@@H]2C)cc1
readout number: 0.577
--
smiles str: [N-]=[N+]=NCc1ccccc1[C@H]1OC(c2ccc(OCCCO)cc2)=N[C@@]1(Cc1ccccc1)C(=O)O
readout number: 0.179
--
smiles str: CC(C)(C)OC(=O)CC[C@@]1(C(=O)N2CCOCC2)N=C(c2ccc(OCCCO)cc2)O[C@@H]1c1ccccc1N=[N+]=[N-]
readout number: 0.899
--
smiles str: C=CCNC(=O)[C@H]1[C@@H]2C(=O)O[C@@H](c3ccccc3)[C@@H](c3ccccc3)N2[C@@H](c2ccc(O)cc2)[C@]12C(=O)Nc1ccc(C#Cc3ccc(OC)cc3)cc12
readout number: -0.208
